Reference for the values: ChEMBL document CHEMBL2385041

Exercise: for every item that follows, state its recorded pIC50.
# system-under-test: Histone deacetylase 1 (Homo sapiens, UniProt Q13547)
# Sequence (Q13547 whole entry): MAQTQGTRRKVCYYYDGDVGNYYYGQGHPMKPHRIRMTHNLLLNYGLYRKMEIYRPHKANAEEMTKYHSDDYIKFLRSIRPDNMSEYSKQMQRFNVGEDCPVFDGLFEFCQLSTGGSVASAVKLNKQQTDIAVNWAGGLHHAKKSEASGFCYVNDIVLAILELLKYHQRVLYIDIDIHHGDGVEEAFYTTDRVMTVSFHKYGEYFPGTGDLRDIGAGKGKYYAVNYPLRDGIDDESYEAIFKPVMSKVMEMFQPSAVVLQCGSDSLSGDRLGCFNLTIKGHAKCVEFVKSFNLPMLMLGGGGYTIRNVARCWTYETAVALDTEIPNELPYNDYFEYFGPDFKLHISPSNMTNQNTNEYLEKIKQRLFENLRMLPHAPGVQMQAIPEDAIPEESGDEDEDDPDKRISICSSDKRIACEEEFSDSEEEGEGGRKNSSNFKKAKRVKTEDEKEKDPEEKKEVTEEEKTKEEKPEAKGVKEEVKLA
# assay-procedure: Inhibition of human recombinant HDAC1 expressed in High5 insect cells using Ac-Lys-Tyr-Lys(-acetyl)-AMC as substrate after 24 hrs by fluorescence assay
Scale: pIC50 equals -log10([C]), with [C] in mol/L.

# input Provide one value: measured pIC50 of COc1cc2c(c(OC)c1OC)-c1ccc(OC)c(=O)cc1[C@@H](NC(=O)CCCC(=O)NO)CC2
# output 5.02

# input Return pIC50 (reported value) for this compound: COc1cc2c(c(OC)c1OC)-c1ccc(OC)c(=O)cc1[C@@H](NC(=O)CCCCCC(=O)NO)CC2
# output 5.80

# input Read off the recorded pIC50 for COc1cc2c(c(OC)c1OC)-c1ccc(OC)c(=O)cc1[C@@H](NC(=O)CCC(=O)NO)CC2
# output 5.88

# input Item COc1cc2c(c(OC)c1OC)-c1ccc(OC)c(=O)cc1[C@@H](NC(=O)CCCCC(=O)NO)CC2 : provide pIC50
# output 6.14
